Listed next: entries and their corresponding Clast.
# Tested on: Liver
# protocol: Clast in Sprague-Dawley rat liver assessed as 2'-C-methyl guanosine triphosphate level at 10 mg/kg, po up to 24 hrs by LC-MS/Ms analysis
# Assay type: ADME, organism-based
# Set-up: dose 10 mg/kg, route oral
# conditionDetails: in vivo

{"compound": "COc1nc(N)nc2c1ncn2[C@@H]1O[C@H](COP(=O)(N[C@@H](C)C(=O)OCC(C)(C)C)Oc2cccc3ccccc23)[C@@H](O)[C@@]1(C)O (stereo partly drawn)", "Clast / ng/g": 983.3}
{"compound": "COc1nc(N)nc2c1ncn2[C@@H]1O[C@H](COP(=O)(N[C@H](C(=O)OCc2ccccc2)C(C)C)N[C@H](C(=O)OCc2ccccc2)C(C)C)[C@@H](O)[C@@]1(C)O (mixture of isomers)", "Clast / ng/g": 73.6}
{"compound": "COc1nc(N)nc2c1ncn2[C@@H]1O[C@H](COP(=O)(N[C@@H](C)C(=O)OC2Cc3ccccc3C2)N[C@@H](C)C(=O)OC2Cc3ccccc3C2)[C@@H](O)[C@@]1(C)O (mixture of isomers)", "Clast / ng/g": 632}

The measurements presented in this section are drawn from ChEMBL document CHEMBL2150978.
